- Test system: C. elegans
- assay_overview: microbe, parasite or virus in culture
- condition_set: Caenorhabditis elegans, 0 h, read-out: Percentage of motility inhibition 0 h, Table S2, C. elegans SS assay, 110 μM, 0 h, averages of 4 data points
Label class 1 for high-side inhibition at 110 µM (at or above 3%) and class 0 for low-side inhibition at 110 µM (below it).

Examples with answers:
C[C@H](CC[C@@H](O)C(C)(C)O)[C@H]1CC[C@@]2(C)[C@@H]3CC=C4[C@@H](CC[C@H](O)C4(C)C)[C@]3(C)C(=O)C[C@]12C : class 1
CN1C(=O)/C(=C2/C(=O)Nc3ccccc32)c2ccccc21 : class 0
COC1=C[C@]23CCCN2CCc2cc4c(cc2[C@@H]3[C@@H]1O)OCO4 : class 0

Turning to the following molecule.
Could you tell me if the measured inhibition at 110 µM of CC(=O)Oc1ccccc1C(=O)Nc1ncc([N+](=O)[O-])s1 [Nitazoxanide] reaches 3% or more?
class 1

====

Please go through the items and note down their inhibition at 110 µM.
- Tested on: C. elegans
- assay_overview: microbe, parasite or virus in culture
- condition_set: Caenorhabditis elegans, 24 h, read-out: Percentage of motility inhibition 24 h, Table S2, C. elegans SS assay, 110 μM, 24 h, averages of 4 data points

In the examples that follow, each entry is paired with its recorded inhibition at 110 µM.
N[C@@H](CC(=O)O)C(=O)O : 30%
CC(C)=CCC[C@](C)(O[C@@H]1O[C@H](CO[C@@H]2O[C@H](CO)[C@@H](O)[C@H](O)[C@H]2O)[C@@H](O)[C@H](O)[C@H]1O)[C@H]1CC[C@]2(C)[C@@H]1[C@H](O)C[C@@H]1[C@@]3(C)CC[C@H](O[C@@H]4O[C@H](CO)[C@@H](O)[C@H](O)[C@H]4O[C@@H]4O[C@H](CO)[C@@H](O)[C@H](O)[C@H]4O)C(C)(C)[C@@H]3CC[C@]12C [Ginsenoside Rb1] : 0%
COc1cc(OC)cc(OC)c1 : 25%
Cc1cc(=O)oc2cc(O)ccc12 : 3%

We next turn to a different molecule, shown below.
What value of inhibition at 110 µM has been reported for the following molecule? O=c1ncnc2n([C@H]3O[C@@H](CO)[C@H](O)[C@@H]3O)[nH]cc1-2 (stereo in doubt) [Allopurinol riboside]
0%

====

- Tested on: C. elegans
- condition_set: Table S2, C. elegans SS assay, 110 μM, 0 h, averages of 4 data points
Please go through the items and note down their Percentage of motility inhibition 0 h.
One number for each entry, in %.

COc1ccc(-c2cc(=O)c3c(OC)c(OC)c(OC)c(OC)c3o2)cc1O : 0

What value of Percentage of motility inhibition 0 h has been reported for the following compound? C[C@H](CC[C@@H](O[C@@H]1O[C@H](CO)[C@@H](O)[C@H](O)[C@H]1O[C@@H]1O[C@H](CO)[C@@H](O)[C@H](O)[C@H]1O)C(C)(C)O)[C@H]1CC[C@@]2(C)[C@@H]3CC=C4[C@@H](CC[C@H](O[C@@H]5O[C@H](CO)[C@@H](O)[C@H](O)[C@H]5O)C4(C)C)[C@]3(C)[C@H](O)C[C@]12C [Mogroside III-E]
25

====

- System: C. elegans
- condition_set: Table S2, C. elegans SS assay, 110 μM, 0 h, averages of 4 data points
endpoint: Percentage of motility inhibition 0 h
Report the figure along with its unit, number first.

CC1=COC(=O)[C@H]2[C@@H]1CC[C@@H]2C : 17%

Could I get Percentage of motility inhibition 0 h for every one of these entries?
1. COc1cc(C2Oc3ccc(-c4cc(=O)c5c(O)cc(O)cc5o4)cc3OC2CO)ccc1O (racemic) [(Rac)‐Hydnocarpin]
2. COc1cccc2c1C(=O)c1c(O)c3c(c(O)c1C2=O)C[C@@](O)(C(=O)CO)C[C@@H]3O[C@H]1C[C@H](N)[C@H](O)[C@H](C)O1.Cl [Doxorubicin (hydrochloride)]
3. C/C=C/C=C/C=C/CC/C=C/C(=O)NCC(C)(C)O [Hydroxy‐β‐sanshool]

1: 7%; 2: 13%; 3: 46%

Could I get Percentage of motility inhibition 0 h for every one of these entries?
1. CCC1=C[C@@H]2CN(C1)Cc1c([nH]c3ccccc13)[C@@](C(=O)OC)(c1cc3c(cc1OC)N(C)[C@H]1[C@@](O)(C(=O)OC)[C@H](OC(C)=O)[C@]4(CC)C=CCN5CC[C@]31[C@@H]54)C2.O=C(O)C(O)C(O)C(=O)O.O=C(O)C(O)C(O)C(=O)O [Vinorelbine (ditartrate)]
2. CC(=O)O[C@@H]1CC[C@@]2(C)[C@@H](CC[C@]3(C)[C@@H]2C(=O)C=C2[C@@H]4[C@@H](C)[C@H](C)CC[C@]4(C)CC[C@]23C)[C@@]1(C)C(=O)O

["0%", "0%"]

Reference source for all entries: paper PMC11855827
